experiment_summary: qHTS assay to identify small molecule agonists of the sonic hedgehog signaling (Shh) pathway (AID 1259368);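 further: NIH/3T3-derived 3T3Gli1-Luc cells carrying a stable Gli1-driven firefly luciferase reporter; on the % scale 0 is the no-effect control and ±100 the full control effect; nearly all actives have a fitted effect of over 15% in size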
condition_context: NIH/3T3 Gli1-Luc reporter, luciferase, 24 h, stronger effect = higher value; series mostly up to 92.4 µM
Activity calls are given as the source filed them. The call rests on the fitted dose curve.
assay_endpoint: activity change

Here's what some known entries look like.
{"given_smiles": "CCCCOC(=O)c1ccccc1C(=O)O", "data_value": "inactive"}
{"given_smiles": "O=[N+]([O-])c1ccc(CBr)cc1", "data_value": "inactive"}
{"given_smiles": "CC1=C(C(=O)O)N2C(=O)[C@@H](N)[C@H]2SC1", "data_value": "0.0682% [at 18.9 µM] (inactive)"}
{"given_smiles": "CNC(=O)Oc1cccc(C(C)C)c1", "data_value": "inactive"}

IN: Recorded activity change of "[O]=[Cd]" , please.
OUT: inactive

IN: Try the molecule "CC(Cl)(Cl)[N+](=O)[O-]"
OUT: inactive

---

experiment_summary: A CellTox Green Cytotoxicity Assay to monitor cytotoxicity in HepG2 cells - 32 hour (AID 1224883); further: nearly all actives have a fitted effect of over 50% in size
condition_context: CellTox Green fluorescence; series mostly up to 76.8 µM
Results filed as inconclusive are left out. The source made the active and inactive calls. The call rests on the fitted dose curve; in most records, active means well fitted activation curve with a large enough effect in the repeat runs; inconclusive means weak or mixed curves; inactive means flat fitted curve, though single readings scatter.
Mark one answer only. Choices: active, inactive

IN: Returns: the outcome recorded for "CCOP(=S)(OCC)SCSc1ccc(Cl)cc1" in this assay.
OUT: inactive

IN: Input "COC(=O)COc1ccc(Cl)cc1Cl"
OUT: inactive

IN: Follow-up item: "ClC(Cl)(Cl)C(Cl)(Cl)Cl"
OUT: inactive

IN: Please give the result for "CNC(=O)Oc1c(C(C)(C)C)cc(C)cc1C(C)(C)C" too.
OUT: inactive

IN: Queued: "BrCCCCCCBr"
OUT: inactive

IN: Okay, and "ClC(Cl)Br" ?
OUT: inactive

IN: What about "CCOc1nc(C(Cl)(Cl)Cl)ns1" ?
OUT: inactive

IN: "O=C(CCN1CC1)OCC(CO)(COC(=O)CCN1CC1)COC(=O)CCN1CC1" ?
OUT: inactive

IN: Now this one: CCC/C(=N\OCC)C1=C(O)CC(CC(C)SCC)CC1=O (stereo not drawn)
OUT: inactive

IN: Another compound: "CC(=O)[C@H]1CC[C@H]2[C@@H]3CC[C@H]4C[C@H](O)CC[C@]4(C)[C@H]3C(=O)C[C@]12C"
OUT: inactive

IN: Note, next up: "CCCSC(=O)Cl"
OUT: inactive

IN: What about "C=CCC1=C(C)[C@@H](OC(=O)[C@@H]2[C@@H](C=C(C)C)C2(C)C)CC1=O" ?
OUT: active

IN: Check "COCC(=O)N(c1c(C)cccc1C)N1CCOC1=O" too.
OUT: inactive

---

experiment_summary: Caspase-3/7 induction in CHO-K1 cells by small molecules, qHTS cell viability counter screen (AID 1346979); further: on the % scale 0 is the no-effect control and ±100 the full control effect; nearly all actives have a fitted effect of over 35% in size
condition_context: CellTiter-Fluor fluorescence, 17 h; series mostly up to 92.4 µM
Source text: National Center for Advancing Translational Sciences [NCATS] NIH Chemical Genomics Center [NCGC] U.S. Environmental Protection Agency [EPA] National Institutes of Environmental Health Sciences [NIEHS] National Toxicology Program [NTP] U.S. Food and Drug Administration [FDA] Apoptosis is a process of programmed cell death and plays a central role in the development of multicellular organisms. […]
Inconclusive results are not listed. Active and inactive are the calls of the source. Calls follow the shape of the dose curve; as a rule, active = well fitted cell-killing curve with a large enough effect in the repeat runs; inconclusive = weak or mixed curves, or effect the other way; inactive = no such curve, though single readings can be large or run the other way.
assay_endpoint: outcome

# count of solved cases: 10
{"molecule": "CC(C)COP(=O)(OCC(C)C)OCC(C)C", "outcome": "inactive"}
{"molecule": "ClC(Cl)(Cl)C(Cl)(Cl)Cl", "outcome": "inactive"}
{"molecule": "CCNc1nc(NC(C)C)nc(OC)n1", "outcome": "inactive"}
{"molecule": "COc1ncc(F)c2nc(S(=O)(=O)Nc3c(F)cccc3F)nn12", "outcome": "inactive"}
{"molecule": "ClCC(Cl)Cl", "outcome": "inactive"}
{"molecule": "O=C(N[C@H]1CN2CCC1CC2)c1cc2ccoc2cn1", "outcome": "inactive"}
{"molecule": "CCOP(=S)(OCC)SCSc1ccc(Cl)cc1", "outcome": "inactive"}
{"molecule": "C=C(C)CN(CC)c1c([N+](=O)[O-])cc(C(F)(F)F)cc1[N+](=O)[O-]", "outcome": "inactive"}
{"molecule": "NC(=O)O", "outcome": "inactive"}
{"molecule": "CC(C(O)c1ccccc1)N(C)C/C=C/c1ccccc1 (stereo not drawn)", "outcome": "inactive"}

IN: Query: outcome; subject: "CN1C(=S)CN=C(c2ccccc2)c2cc(Cl)ccc21"
OUT: inactive

IN: Same read-out for "BrCCCCCCBr" ?
OUT: inactive

IN: # repeat for "O=C1OC(c2ccc(O)c(S(=O)(=O)O)c2)(c2ccc(O)c(S(=O)(=O)O)c2)c2c(Br)c(Br)c(Br)c(Br)c21"
OUT: inactive

---

system: Peroxisome proliferator-activated receptor gamma (Homo sapiens) (UniProt P37231)
Sequence (P37231 whole entry, looked up): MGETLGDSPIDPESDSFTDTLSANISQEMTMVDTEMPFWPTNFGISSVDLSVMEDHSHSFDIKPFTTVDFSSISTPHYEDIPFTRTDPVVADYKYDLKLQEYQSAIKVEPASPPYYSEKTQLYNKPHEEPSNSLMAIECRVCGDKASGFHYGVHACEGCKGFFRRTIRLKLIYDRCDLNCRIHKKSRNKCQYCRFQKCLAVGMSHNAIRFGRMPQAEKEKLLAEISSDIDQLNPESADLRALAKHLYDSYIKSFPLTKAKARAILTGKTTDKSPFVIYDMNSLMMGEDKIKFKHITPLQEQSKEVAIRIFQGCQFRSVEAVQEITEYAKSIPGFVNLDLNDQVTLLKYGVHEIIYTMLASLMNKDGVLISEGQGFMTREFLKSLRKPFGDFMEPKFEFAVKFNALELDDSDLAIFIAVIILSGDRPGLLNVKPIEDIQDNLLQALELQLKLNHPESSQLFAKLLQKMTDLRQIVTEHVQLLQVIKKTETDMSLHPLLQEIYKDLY
experiment_summary: qHTS assay to identify small molecule antagonists of the peroxisome proliferator-activated receptor gamma (PPARg) signaling pathway (AID 743191); further: on the % scale 0 is the no-effect control and ±100 the full control effect; nearly all actives have a fitted effect of over 30% in size
condition_context: HEK293H PPARg-UAS-bla, beta-lactamase ratio, antagonist, 17 h; series mostly up to 62.6 µM
Records with an inconclusive call do not appear. The source made the active and inactive calls. Calls come from the whole dose curve.
assay_endpoint: outcome

Before answering, review these 10 worked examples.
{"molecule": "CCCCOC(=O)c1ccccc1C(=O)O", "outcome": "inactive"}
{"molecule": "O=NN1CCCCC1", "outcome": "inactive"}
{"molecule": "CCOP(=O)(OCC)OP(=O)(OCC)OCC", "outcome": "inactive"}
{"molecule": "N#CC(O)c1ccccc1 (centres undefined)", "outcome": "inactive"}
{"molecule": "CCN(CC)C(C)C(=O)c1ccccc1 (centres undefined)", "outcome": "inactive"}
{"molecule": "CCCCN(CCCCO)N=O", "outcome": "inactive"}
{"molecule": "CC(=O)Nc1cc([As](=O)(O)O)ccc1O", "outcome": "inactive"}
{"molecule": "Cc1ccccc1CO[C@@H]1C[C@@]2(C(C)C)CC[C@]1(C)O2", "outcome": "inactive"}
{"molecule": "Fc1cc(Br)ccc1CBr", "outcome": "inactive"}
{"molecule": "BrCCCCCCBr", "outcome": "inactive"}

IN: Which outcome value belongs to "O=S(=O)(O)C(F)(F)C(F)(F)C(F)(F)C(F)(F)C(F)(F)C(F)(F)F" ?
OUT: inactive

IN: Same thing, different molecule: "COc1cc(OC)nc(NC(=O)NS(=O)(=O)c2ncccc2OCC(F)(F)F)n1"
OUT: inactive

---

experiment_summary: qHTS assay for small molecule activators of the heat shock response signaling pathway - cell viability counter screen (AID 743209); further: nearly all actives have a fitted effect of over 50% in size
condition_context: HSE-bla HeLa viability, CellTiter-Glo luminescence, 5 h; series mostly up to 62.6 µM
Results filed as inconclusive are left out. Calls of active or inactive are those of the source. Calls come from the whole dose curve; as a rule, active = well fitted cell-killing curve with a large enough effect in the repeat runs; inconclusive = weak or mixed curves, or effect the other way; inactive = no such curve, though single readings can be large or run the other way.
API: response.call in Yes for active, No for inactive

IN: Hey, what did the test say about CC(C1CC1)C(O)(Cn1cncn1)c1ccc(Cl)cc1 (stereo not given) ?
OUT: No

IN: "C#CCN1C(=O)COc2cc(F)c(N3C(=O)C4=C(CCCC4)C3=O)cc21" ?
OUT: No

IN: Same question, "CN(N=O)C(N)=O" this time
OUT: No

IN: "CC(=O)Nc1cc([As](=O)(O)O)ccc1O" ?
OUT: No

IN: Repeat with "CC1(C)CON(Cc2ccccc2Cl)C1=O"
OUT: No

IN: Here is the next compound: "CCOC(=O)/C=C(C)/C=C/C[C@@H](C)CCCC(C)C"
OUT: Yes

IN: Do the same for "Cc1cccc(C#N)c1" please
OUT: No

IN: Same again, this time with "CN1C(=S)CN=C(c2ccccc2)c2cc(Cl)ccc21"
OUT: No

IN: Input CCN(CC)C(C)C(=O)c1ccccc1 (stereo not given)
OUT: No

IN: Next record, please: "[O]=[Cd]"
OUT: No

IN: Also check "CCC1(c2ccccc2)C(=O)NC(=O)NC1=O"
OUT: No

IN: Check "NC(=S)C(N)=S" too.
OUT: No

IN: Another compound to check: "C=CCC1=C(C)[C@@H](OC(=O)[C@@H]2[C@@H](C=C(C)C)C2(C)C)CC1=O"
OUT: Yes

IN: Moving on to the next compound: "O=NN1CCCCC1"
OUT: No

IN: Item: "O=C(Nc1ccccc1)c1ccccc1I"
OUT: No

IN: And "Nc1ccccc1Cl" ?
OUT: No

IN: Now this one: "Cc1cc(C)c(C(=O)P(=O)(C(=O)c2c(C)cc(C)cc2C)c2ccccc2)c(C)c1"
OUT: No

IN: Same thing, different compound: CC(Oc1ccc(Oc2ncc(C(F)(F)F)cc2Cl)cc1)C(=O)O (stereo not given)
OUT: No

IN: And what about the compound "C[N+](C)=CCl" ?
OUT: No

IN: Request: "C[C@H]1CCC[C@H](O)CCCCCc2cc(O)cc(O)c2C(=O)O1"
OUT: No

IN: Now the same for "CNC(=O)Oc1cccc(C(C)C)c1"
OUT: No

IN: What do you have for "O=C1c2ccccc2C(=O)c2ccccc21" ?
OUT: No

IN: Try "Nc1n[nH]c(N)n1" next.
OUT: No

IN: Then what about the compound "CCCCP(CCCC)CCCC" ?
OUT: No

IN: What about this compound? CC(COc1ccc(Oc2ccccc2)cc1)Oc1ccccn1 (stereo not given)
OUT: No

IN: // repeat for "O=P(O)(Oc1ccccc1)Oc1ccccc1" and report
OUT: No

IN: Please answer likewise for "O=C(N[C@H]1CN2CCC1CC2)c1cc2ccoc2cn1"
OUT: No

IN: Next: "CN(C)CCc1ccc(O)cc1"
OUT: No

IN: Now consider "CCN(Cc1ccc(Cl)nc1)/C(=C/[N+](=O)[O-])NC" and answer again.
OUT: No

IN: Now consider "O=C(Cc1ccccc1)OCc1ccccc1" .
OUT: No
